Can you tell me pIC50 for the items I'm about to list?
MEASURED_ON: NRAS Q61R (Homo sapiens (Human), UniProt P01111+P62937, Q61R)
Sequence (P01111 whole entry Q61R): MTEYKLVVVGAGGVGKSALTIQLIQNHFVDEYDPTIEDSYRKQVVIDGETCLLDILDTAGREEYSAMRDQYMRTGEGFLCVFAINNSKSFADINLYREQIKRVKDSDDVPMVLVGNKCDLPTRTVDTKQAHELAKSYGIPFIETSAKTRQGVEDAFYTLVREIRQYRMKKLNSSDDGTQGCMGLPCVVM
Sequence (P62937 whole entry): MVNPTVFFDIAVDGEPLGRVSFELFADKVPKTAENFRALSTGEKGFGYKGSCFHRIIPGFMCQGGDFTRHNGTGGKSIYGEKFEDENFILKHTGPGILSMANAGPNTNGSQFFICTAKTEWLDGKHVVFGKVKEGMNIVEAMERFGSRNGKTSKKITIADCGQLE
ASSAY_INFO: Ras-Raf (BRAF RBD) disruption / FRET / MOA assay, NRAS Q61R
Assay type: biochemical
RECORDED_CONDITIONS: NRAS Q61R; Ras-Raf disruption/FRET/MOA assay; read-out: IC50* NRAS Q61R FRET data
pIC50: −log10 of the molar value.

Some compounds with known pIC50 results, for comparison:
compound=C=CC(=O)N1CC[C@H](C(=O)N(C)[C@H](C(=O)N[C@H]2Cc3cc(O)cc(c3)-c3ccc4c(c3)c(c(-c3cc(N5CC(OC)C5)ccn3)n4CC)CC(C)(C)COC(=O)[C@@H]3CCCN(N3)C2=O)C(C)C)C1 quantity_kind=pIC50 reported="5.00 to 6.00"
compound="C=CC(=O)N1CC[C@H](C(=O)N(C)[C@H](C(=O)N[C@H]2Cc3cccc(c3)-c3ccc4c(c3)c(c(-c3cccnc3[C@H](C)OC)n4CC3COC3)CC(C)(C)COC(=O)[C@@H]3CCCN(N3)C2=O)C(C)C)C1 (atropisomer, axis not shown)" quantity_kind=pIC50 reported="5.00 to 6.00"
compound="C=CC(=O)N1CC[C@H]2[C@@H]1CN2C(=O)N(C)[C@H](C(=O)N[C@H]1Cc2nc(cs2)-c2ccc3c(c2)c(c(-c2cccnc2[C@H](C)OC)n3CC)CC(C)(C)COC(=O)[C@@H]2CCCN(N2)C1=O)C(C)C (atropisomer, axis not shown)" quantity_kind=pIC50 reported="5.00 to 6.00"

Respectfully, I request pIC50 for each entry included below.
1. CCn1c(-c2cccnc2[C@H](C)OC)c2c3cc(ccc31)-c1csc(n1)C[C@H](NC(=O)[C@H](C(C)C)N(C)C(=O)N1CCN(C(=O)/C=C/CN3CCOCC3)C3(CC3)C1)C(=O)N1CCC[C@H](N1)C(=O)OCC(C)(C)C2 (atropisomer, axis not shown)
2. C=CS(=O)(=O)N1CCC(C(=O)N(C)[C@H](C(=O)N[C@H]2Cc3nc(cs3)-c3ccc4c(c3)c(c(-c3cncnc3)n4CC)CC(C)(C)COC(=O)[C@@H]3CCCN(N3)C2=O)C(C)C)C1 (single isomer, unassigned)
3. CCn1c(-c2cccnc2[C@H](C)OC)c2c3cc(ccc31)-c1csc(n1)C[C@H](NC(=O)C[C@@H]1COC3(CN(C(=O)C#CC(C)(C)N(C)C)C3)O1)C(=O)N1CCC[C@H](N1)C(=O)OCC(C)(C)C2 (atropisomer, axis not shown)
4. CCn1c(-c2cccnc2[C@H](C)OC)c2c3cc(ccc31)-c1csc(n1)C[C@H](NC(=O)CCO[C@H]1CCN(C(=O)C#CC(C)(C)N3CCC3)C1)C(=O)N1CCC[C@H](N1)C(=O)OCC(C)(C)C2 (atropisomer, axis not shown)
5. CCn1c(-c2cccnc2[C@H](C)OC)c2c3cc(ccc31)-c1csc(n1)C[C@H](NC(=O)CN1CC[C@@]3(CCN(C(=O)C#CC(C)(C)N4CCC4)C3)C1)C(=O)N1CCC[C@H](N1)C(=O)OCC(C)(C)C2 (atropisomer, axis not shown)
6. CCn1c(-c2cccnc2[C@H](C)OC)c2c3cc(ccc31)-c1cccc(c1)C[C@H](NC(=O)[C@@H](COC1CN(C(=O)C#CC(C)(C)N3CCC3)C1)C(C)C)C(=O)N1CCC[C@H](N1)C(=O)OCC(C)(C)C2 (atropisomer, axis not shown)
7. C=CC(=O)N1CC(OC[C@H](C(=O)N[C@H]2Cc3cc(cc(C(F)F)c3)-c3ccc4c(c3)c(c(-c3cccnc3[C@H](C)OC)n4CC)CC(C)(C)COC(=O)[C@@H]3CCCN(N3)C2=O)C(C)C)C1 (atropisomer, axis not shown)
8. CCn1c(-c2cccnc2[C@H](C)OC)c2c3cc(ccc31)-c1csc(n1)C[C@H](NC(=O)[C@H](C(C)C)N(C)C(=O)N1CCC13CN(C(=O)C#CC(C)(C)N(C)C)C3)C(=O)N1CCC[C@H](N1)C(=O)OCC(C)(C)C2 (atropisomer, axis not shown)

1: 7.00 to 8.00; 2: < 5.00; 3: 5.00 to 6.00; 4: 5.00 to 6.00; 5: 5.00 to 6.00; 6: < 5.00; 7: < 5.00; 8: 6.00 to 7.00
